Just for reference, patent US20250361295A1 is where these values come from.

Biological target: T1, human LILRB2 (human, UniProt Q8N423 22-597)
T1 construct: whole, on cells; also called hLILRB2
T1 sequence (Q8N423 22-597): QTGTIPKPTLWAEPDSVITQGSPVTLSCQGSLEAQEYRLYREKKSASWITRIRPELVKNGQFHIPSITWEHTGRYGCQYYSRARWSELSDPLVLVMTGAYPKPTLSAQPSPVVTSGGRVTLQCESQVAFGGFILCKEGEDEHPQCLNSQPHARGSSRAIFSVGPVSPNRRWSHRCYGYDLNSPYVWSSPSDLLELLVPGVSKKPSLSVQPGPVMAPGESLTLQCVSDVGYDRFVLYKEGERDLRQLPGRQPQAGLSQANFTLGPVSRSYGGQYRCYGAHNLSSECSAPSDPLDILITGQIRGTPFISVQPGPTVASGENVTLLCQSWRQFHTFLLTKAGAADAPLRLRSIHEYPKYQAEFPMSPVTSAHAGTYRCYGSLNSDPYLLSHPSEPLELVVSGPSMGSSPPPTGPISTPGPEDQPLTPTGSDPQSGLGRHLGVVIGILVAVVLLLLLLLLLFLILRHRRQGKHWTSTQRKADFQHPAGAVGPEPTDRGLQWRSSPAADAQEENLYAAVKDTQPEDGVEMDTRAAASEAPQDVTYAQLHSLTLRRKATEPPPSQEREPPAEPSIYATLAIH
Experiment: FACS, 293F-hLILRB2 cells
observable: MFI (MFI)
Give bare numbers, in MFI.

Past entries and their recorded results:
| binder | MFI [MFI] |
| --- | --- |
| 27-G5-E9-B8 (antibody, V domains shown, mouse monoclonal hybridoma antibody) VH: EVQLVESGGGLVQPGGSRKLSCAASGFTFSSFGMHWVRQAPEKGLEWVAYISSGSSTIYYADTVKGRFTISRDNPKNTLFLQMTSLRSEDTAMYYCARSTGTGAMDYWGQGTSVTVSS VL: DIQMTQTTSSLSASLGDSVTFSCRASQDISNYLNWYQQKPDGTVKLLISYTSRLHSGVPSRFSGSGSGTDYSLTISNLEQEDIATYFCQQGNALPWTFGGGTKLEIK | 25.4 |
| 7-B4-C1-C9 (antibody, V domains shown, mouse monoclonal hybridoma antibody) VH: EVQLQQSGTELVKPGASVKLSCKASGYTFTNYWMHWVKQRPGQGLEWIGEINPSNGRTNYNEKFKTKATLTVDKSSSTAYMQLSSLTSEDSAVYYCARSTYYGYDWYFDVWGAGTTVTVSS VL: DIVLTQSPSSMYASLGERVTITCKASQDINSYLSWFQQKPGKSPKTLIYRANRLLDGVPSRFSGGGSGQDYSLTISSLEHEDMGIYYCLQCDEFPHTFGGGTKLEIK | 32.2 |

binder 43-D12-F3-G11 (antibody, V domains shown, mouse monoclonal hybridoma antibody) VH: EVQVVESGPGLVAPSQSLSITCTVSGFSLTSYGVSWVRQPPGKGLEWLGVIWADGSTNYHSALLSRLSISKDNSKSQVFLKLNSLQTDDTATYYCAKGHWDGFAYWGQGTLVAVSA VL: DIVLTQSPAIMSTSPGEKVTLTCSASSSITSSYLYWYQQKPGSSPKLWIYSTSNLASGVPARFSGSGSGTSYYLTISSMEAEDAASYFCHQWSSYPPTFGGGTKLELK , MFI observed: 30.4
